Source of measurements: paper PMC8912008

k el overview
Experiment: in vivo
Conditions: male, Sprague Dawley, rat, in vivo, po, 500 mg/kg
Kindly provide the numeric value in s⁻¹ only, without the unit symbol.

CC1=C(C)C(=O)O[C@@H]([C@](C)(O)[C@H]2CC[C@H]3[C@@H]4[C@@H]5O[C@@H]5[C@@]5(O)CC=CC(=O)[C@]5(C)[C@H]4CC[C@]23C)C1 [Withanolide A] = 0.000391
CC1=C(CO)C(=O)O[C@@H]([C@@H](C)[C@H]2CC[C@H]3[C@@H]4CC=C5C[C@@H](O[C@@H]6O[C@H](CO[C@@H]7O[C@H](CO)[C@@H](O)[C@H](O)[C@H]7O)[C@@H](O)[C@H](O)[C@H]6O)C[C@H](O)[C@]5(C)[C@H]4CC[C@]23C)C1 [Withanoside IV] = 0.000182

k el recorded for this molecule, CC1=C(CO)C(=O)OC(C(C)C2CCC3C4C5OC5C5(O)CC=CC(=O)C5(C)C4CCC23C)C1 (stereo not drawn) [12-Deoxy-withastramonolide] , is 0.000121

----------
Experiment: Stability of analytes in rat plasma
Settings: processed rat plasma sample, 4 h, high QC (nominal 200.50-201.50 ng/mL), n = 6
Processed sample stability (% ± SD) overview
Kindly provide the numeric value in % only, without the unit symbol.

Example entries begin here.
CC1=C(CO)C(=O)OC(C(C)C2CCC3C4C5OC5C5(O)CC=CC(=O)C5(C)C4CCC23C)C1 (stereo not shown) [12-Deoxy-withastramonolide] = 92.99
CC1=C(CO)C(=O)O[C@@H]([C@@H](C)[C@H]2CC[C@H]3[C@@H]4CC=C5C[C@@H](O[C@@H]6O[C@H](CO[C@@H]7O[C@H](CO)[C@@H](O)[C@H](O)[C@H]7O)[C@@H](O)[C@H](O)[C@H]6O)C[C@H](O)[C@]5(C)[C@H]4CC[C@]23C)C1 [Withanoside IV] = 101.10
CC1=C(C)C(=O)O[C@@H]([C@@H](C)[C@H]2CC[C@H]3[C@@H]4CC=C5C[C@@H](O[C@@H]6O[C@H](CO[C@@H]7O[C@H](CO)[C@@H](O)[C@H](O)[C@H]7O)[C@@H](O)[C@H](O)[C@H]6O)C[C@H](O)[C@]5(C)[C@H]4CC[C@]23C)C1 [Withanoside V] = 90.47

Now look at this one.
Processed sample stability (% ± SD) recorded for this compound, CC1=C(CO)C(=O)O[C@@H]([C@@H](C)[C@H]2CC[C@H]3[C@@H]4C[C@H]5O[C@]56[C@@H](O)C=CC(=O)[C@]6(C)[C@H]4CC[C@]23C)C1 , is 99.56

----------
Experiment: Stability of analytes in rat plasma
Conditions: rat plasma, 25 °C for 4 h, low QC (nominal 10.05-10.50 ng/mL), n = 6
endpoint-name: Bench top Stability (% ± SD) (%)
Kindly provide the numeric value in % only, without the unit symbol.

Example entries begin here.
CC1=C(C)C(=O)O[C@@H]([C@@H](C)[C@@]2(O)CC[C@H]3[C@@H]4[C@@H]5O[C@@H]5[C@@]5(O)CC=CC(=O)[C@]5(C)[C@H]4CC[C@@]32C)C1 = 96.31
CC1=C(C)C(=O)O[C@@H]([C@@H](C)[C@H]2CC[C@H]3[C@@H]4CC=C5C[C@@H](O[C@@H]6O[C@H](CO[C@@H]7O[C@H](CO)[C@@H](O)[C@H](O)[C@H]7O)[C@@H](O)[C@H](O)[C@H]6O)C[C@H](O)[C@]5(C)[C@H]4CC[C@]23C)C1 [Withanoside V] = 99.58
CC1=C(C)C(=O)O[C@@H]([C@](C)(O)[C@H]2CC[C@H]3[C@@H]4[C@@H]5O[C@@H]5[C@@]5(O)CC=CC(=O)[C@]5(C)[C@H]4CC[C@]23C)C1 [Withanolide A] = 102.00
CC1=C(C)C(=O)O[C@@H]([C@@H](C)[C@H]2CC[C@H]3[C@@H]4[C@@H]5O[C@@H]5[C@@]5(O)CC=CC(=O)[C@]5(C)[C@H]4CC[C@]23C)C1 [Withanolide B] = 95.51
CC1=C(CO)C(=O)O[C@@H]([C@@H](C)[C@H]2CC[C@H]3[C@@H]4CC=C5C[C@@H](O[C@@H]6O[C@H](CO[C@@H]7O[C@H](CO)[C@@H](O)[C@H](O)[C@H]7O)[C@@H](O)[C@H](O)[C@H]6O)C[C@H](O)[C@]5(C)[C@H]4CC[C@]23C)C1 [Withanoside IV] = 104.41
CC1=C(CO)C(=O)O[C@@H]([C@@H](C)[C@H]2CC[C@H]3[C@@H]4C[C@H]5O[C@]56[C@@H](O)C=CC(=O)[C@]6(C)[C@H]4CC[C@]23C)C1 = 103.30

Now look at this one.
Bench top Stability (% ± SD) recorded for this molecule, CC1=C(CO)C(=O)OC(C(C)C2CCC3C4C5OC5C5(O)CC=CC(=O)C5(C)C4CCC23C)C1 (stereo not shown) [12-Deoxy-withastramonolide] , is 97.92
